Listed sequences paired with reported protein stability index
# method.summary: protein stability index of a GFP-peptide fusion (yeast GPS) (PSI 1-4); higher = more stable; sorted into four equal gates, so the index is relative within each strain
# measurement.conditions: doa10∆
Form rule: numeric answer, no unit written next to it.

Solved entries:
record.sequence | metric | recorded.result
IDESMPDTAIDSQMDEA [GRR1] | protein stability index | 3.01
STPYLEILVEESGLRPV [PCI8] | protein stability index | 1.57
MSAVPSVQTFGKKKSAT [RPS16A] | protein stability index | 1.45
SEYKVAFPHLYNSRPRS [PRP8] | protein stability index | 2.91
GNVFSPIDNNIIFASTK [SNU114] | protein stability index | 3.16
TKFKGGKRQLMKAVGEY [SEC65] | protein stability index | 2.88
AIRKNGQIDFWYQFSNS [SIN4] | protein stability index | 2.09
FSISYKPPTQKTDTKVS [SRP21] | protein stability index | 2.24

Next, consider the following sequence.
I'd like to know its protein stability index. The sequence in question is TVKFKHMDYDGNIVKEF [YMR129W/POM152]
2.89
